Exercise: state measured Vmax for each of the molecules provided.
molecular target: Catalase from human erythrocytes (EC 1.11.1.6, CAT) (Homo sapiens, UniProt P04040); construct: Catalase from human erythrocytes (EC 1.11.1.6, CAT); purchased Sigma–Aldrich (Poznań, Poland); host or cells: human erythrocytes (natural source); test: Catalase (CAT) inhibition kinetics by capillary electrophoresis (hydrogen peroxide/guaiacol/tetraguaiacol); assay type: biochemical; details: inhibitor 10.00 mM
Sequence (P04040 2-527 limits assumed): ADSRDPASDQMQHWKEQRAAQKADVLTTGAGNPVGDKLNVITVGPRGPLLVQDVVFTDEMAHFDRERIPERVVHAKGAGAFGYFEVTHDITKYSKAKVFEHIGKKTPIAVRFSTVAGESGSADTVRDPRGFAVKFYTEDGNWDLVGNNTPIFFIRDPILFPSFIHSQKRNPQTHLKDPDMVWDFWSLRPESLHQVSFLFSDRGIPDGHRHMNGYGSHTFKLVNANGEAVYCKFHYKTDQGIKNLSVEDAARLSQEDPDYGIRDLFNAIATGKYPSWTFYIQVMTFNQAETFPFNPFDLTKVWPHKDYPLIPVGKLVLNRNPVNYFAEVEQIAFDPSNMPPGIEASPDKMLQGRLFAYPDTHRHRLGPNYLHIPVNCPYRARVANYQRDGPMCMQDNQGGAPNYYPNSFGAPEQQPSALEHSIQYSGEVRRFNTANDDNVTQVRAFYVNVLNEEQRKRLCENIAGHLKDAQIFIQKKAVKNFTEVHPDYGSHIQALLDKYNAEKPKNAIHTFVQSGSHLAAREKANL
Numeric only. Scale: mM/min

Input CCC12C(=O)C(CC)(C(c3ccccc3)=C1c1ccccc1)C1C(=O)N(CC(O)CN(C)C)C(=O)C12 (stereo not shown) [Compound (II)] . Output Vmax: 1.26

The recorded Vmax for CC(C)NCC(O)CN1C(=O)C2C(C1=O)C1(C)C(=O)C2(C)C(c2ccccc2)=C1c1ccccc1 (stereo not shown) [Compound (III)] is 1.24

The reported Vmax of the molecule CCC12C(=O)C(CC)(C(c3ccccc3)=C1c1ccccc1)C1C(=O)N(CC(O)CNC(C)C)C(=O)C12 (stereo not shown) [Compound (I)] was 1.25

Vmax reported for this molecule CN(C)CC(O)CN1C(=O)C2C(C1=O)C1(C)C(=O)C2(C)C(c2ccccc2)=C1c1ccccc1 (stereo not shown) [Compound (IV)] : 1.24
